# normalized growth listing for each entry below
Experiment: chemical genetic growth profiling, strain panel (AID 1159580);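 further: tested at 20 µM; growth read once vehicle control cultures reached saturation at 30 °C; 1 = growth at the plate median or of vehicle wells; lower values mean less growth of the strain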
Conditions: S. cerevisiae deletion strains, growth OD, locus YKL160W, strain elf1, stronger effect = lower value
The whole screen tested about 5,500 compounds, of which about 2,000 (36%) were called active. Not shown: some 18% with an inconclusive outcome. This is one part of the list.
Please reply with the value in numeric form only.

Reference set (8 entries):
INSERT INTO assay_data (compound, readout_value) VALUES
  ('C[C@]12C=CC(=O)C=C1CCC1C2[C@@H](O)C[C@@]2(C)C1CC[C@]2(O)C(=O)COP(=O)(O)O (some centres undefined)', 1),
  ('COC(=O)[C@@]1(C)CCC[C@]2(C)c3ccc(O)c(C(C)C)c3CCC12 (some centres undefined)', 0.881),
  ('O=C1[O][Bi][O]c2ccccc21', 0.996),
  ('CCCCCCCCCCCC1=C(O)C(=O)C=C(O)C1=O', 0.805),
  ('CC(C)c1c(O)ccc2c1CCC1[C@@](C)(CO)CCC[C@]21C (some centres undefined)', 1.02),
  ('CC(=O)Oc1ccc2c(c1C(C)C)CCC1C(C)(C)CCC[C@]21C (some centres undefined)', 1.01),
  ('CN1C[C@H](C(=O)N[C@]2(C)O[C@@]3(O)[C@@H]4CCCN4C(=O)[C@H](Cc4ccccc4)N3C2=O)C[C@@H]2c3cccc4[nH]cc(c34)C[C@H]21', 0.928),
  ('CC(C)c1c(O)ccc2c1CCC1[C@@](C)(C=O)CCC[C@]21C (some centres undefined)', 0.915);

Kindly consider the entry below.
Ask: Assign normalized growth to the following record: CNC(C)C(O)c1ccccc1 (centres undefined)
Reply: 1.02
